Data provenance: PubChem BioAssay AID813

Kindly supply the reported activation factor values for the records listed here.
- SYSTEM: Alkaline phosphatase, tissue-nonspecific isozyme (Homo sapiens) (UniProt P05186)
- Sequence (P05186 whole entry, looked up): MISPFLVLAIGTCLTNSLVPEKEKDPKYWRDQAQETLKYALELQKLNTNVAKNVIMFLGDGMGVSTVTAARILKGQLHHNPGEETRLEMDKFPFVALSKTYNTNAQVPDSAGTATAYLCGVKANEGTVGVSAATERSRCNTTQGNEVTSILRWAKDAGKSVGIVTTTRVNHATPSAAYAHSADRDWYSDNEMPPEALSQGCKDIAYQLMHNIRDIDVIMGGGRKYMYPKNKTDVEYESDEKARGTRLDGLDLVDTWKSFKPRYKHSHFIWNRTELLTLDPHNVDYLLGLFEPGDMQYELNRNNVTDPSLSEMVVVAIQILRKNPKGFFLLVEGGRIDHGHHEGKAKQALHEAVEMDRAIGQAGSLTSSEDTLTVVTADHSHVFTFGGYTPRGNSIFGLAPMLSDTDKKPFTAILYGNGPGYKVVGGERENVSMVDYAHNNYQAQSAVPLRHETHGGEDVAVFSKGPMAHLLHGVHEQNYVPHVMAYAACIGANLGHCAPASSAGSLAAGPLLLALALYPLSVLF
- PROCEDURE TEXT: human TNAP enzyme activators, primary screen, biochemical, luminescent, intermediate phosphate acceptor level (AID 813)
- CONDITION: purified TNAP, CDP-star luminescence, 100 mM DEA, 30 min; at 20 µM; stronger effect = higher value; scale: 0 levamisole-inhibited, 1 vehicle-only enzyme
In all, about 64,000 compounds went through this assay and fewer than 10 were called active. Only a sample is shown.
Just the number, please, no unit after it.

IN: Specify reported activation factor for the compound shown: `O=C(OCCO)c1cc(Cl)c(C(=O)OCCO)cc1Cl`
OUT: 0.9

IN: Specify reported activation factor for the compound shown: `CCc1c(C)c2c(C)[nH]nc2oc1=O`
OUT: 0.8

IN: Specify reported activation factor for the compound shown: `CCCCOc1ccc(C(=O)NCc2ccco2)cc1`
OUT: 0.9

IN: Specify reported activation factor for the compound shown: `CCc1cccc(C)c1NC(=O)CSc1nnc(-c2ccco2)n1N`
OUT: 1.1

IN: Specify reported activation factor for the compound shown: CSCCC1NC2(C(=O)Nc3ccc(Cl)cc32)[C@@H]2C(=O)N(C3CCCC3)C(=O)[C@H]12 (stereo partly specified)
OUT: 0.9

IN: Specify reported activation factor for the compound shown: Cc1cc(N2C(=O)C(=O)/C(=C(/O)c3ccccc3)C2c2cccc(Br)c2)no1 (stereo unspecified)
OUT: 1

====

- SYSTEM: Alkaline phosphatase, tissue-nonspecific isozyme (Homo sapiens)
- PROCEDURE TEXT: human TNAP enzyme activators, primary screen, biochemical, luminescent, intermediate phosphate acceptor level (AID 813)
- CONDITION: purified TNAP, CDP-star luminescence, 100 mM DEA, 30 min; at 20 µM; stronger effect = higher value; scale: 0 levamisole-inhibited, 1 vehicle-only enzyme
The campaign covered roughly 64,000 compounds. Fewer than 10 were called active. Not all results are given here.
MEASURED PROPERTY: activation factor
Just the number, please, no unit after it.

IN: Specify reported activation factor for the compound shown: `CN(C)/C=C1/C(=O)Nc2ccccc21`
OUT: 0.9

IN: Specify reported activation factor for the compound shown: `Cc1ncn(C23CC4CC(CC(O)(C4)C2)C3)n1`
OUT: 1

IN: Specify reported activation factor for the compound shown: `O=C(CCCN1C(=O)CCC1=O)Nc1ccc(Cl)c(C(F)(F)F)c1`
OUT: 0.9

IN: Specify reported activation factor for the compound shown: CCCNC(=O)C1CC(=O)N(c2ccc(OCC(=O)Nc3cccc(C)c3C)cc2)C1 (stereo unspecified)
OUT: 1

IN: Specify reported activation factor for the compound shown: Cc1cc(C)nc(N2C(=O)CC(Cc3ccccc3)C2=O)n1 (stereo unspecified)
OUT: 0.9

IN: Specify reported activation factor for the compound shown: `COC(=O)COc1ccc2oc(=O)cc(C)c2c1`
OUT: 1

====

- SYSTEM: Alkaline phosphatase, tissue-nonspecific isozyme (Homo sapiens) (UniProt P05186)
- PROCEDURE TEXT: human TNAP enzyme activators, primary screen, biochemical, luminescent, intermediate phosphate acceptor level (AID 813)
- CONDITION: purified TNAP, CDP-star luminescence, 100 mM DEA, 30 min; at 20 µM; stronger effect = higher value; scale: 0 levamisole-inhibited, 1 vehicle-only enzyme
Out of some 64,000 compounds screened, fewer than 10 were called active. Not all results are given here.
MEASURED PROPERTY: activation factor
Just the number, please, no unit after it.

IN: Specify reported activation factor for the compound shown: `Cc1ccc(C)n1-c1ccncc1`
OUT: 0.9

IN: Specify reported activation factor for the compound shown: `CCOc1ccc(N(CC(=O)OC)S(=O)(=O)c2c(C)noc2C)cc1`
OUT: 0.9

IN: Specify reported activation factor for the compound shown: COc1ccc(C2C(C#N)=C(N)Oc3cc(N)ccc32)cc1OC (stereo unspecified)
OUT: 1

IN: Specify reported activation factor for the compound shown: `CC(=O)Nc1ccc(S(=O)(=O)N2CCSCC2)cc1`
OUT: 1

IN: Specify reported activation factor for the compound shown: CCC(c1nnnn1Cc1ccco1)N(CCc1ccccc1)Cc1cc2cccc(C)c2[nH]c1=O (stereo unspecified)
OUT: 0.9

IN: Specify reported activation factor for the compound shown: O=C(CSC1=Nc2ccccc2C2=NC(c3ccccc3)C(=O)N12)NCC1CCCO1 (stereo unspecified)
OUT: 0.9

IN: Specify reported activation factor for the compound shown: Cc1cccc(C2c3c(n(C)c(=O)n(C)c3=O)N=C3c4ccccc4C(=O)C32)c1 (stereo unspecified)
OUT: 0.8

IN: Specify reported activation factor for the compound shown: `Cc1ccc(S(=O)(=O)NCC(=O)OCC(=O)N2CCc3ccccc32)cc1`
OUT: 0.8

IN: Specify reported activation factor for the compound shown: COCCN1C(=O)c2oc3c(C)cc(C)cc3c(=O)c2C1c1cccc(O)c1 (stereo unspecified)
OUT: 0.8

IN: Specify reported activation factor for the compound shown: `CCCCn1nc(C(=O)N2CCc3ccccc32)c2ccccc2c1=O`
OUT: 0.9

IN: Specify reported activation factor for the compound shown: `CCn1c(SCC(=O)Nc2cc(C)c(Cl)cc2OC)nnc1-c1ccco1`
OUT: 1

====

Kindly supply the reported activation factor values for the records listed here.
- SYSTEM: Alkaline phosphatase, tissue-nonspecific isozyme (Homo sapiens)
- PROCEDURE TEXT: human TNAP enzyme activators, primary screen, biochemical, luminescent, intermediate phosphate acceptor level (AID 813)
- CONDITION: purified TNAP, CDP-star luminescence, 100 mM DEA, 30 min; at 20 µM; stronger effect = higher value; scale: 0 levamisole-inhibited, 1 vehicle-only enzyme
The whole screen tested about 64,000 compounds, of which fewer than 10 were called active. These entries were drawn from the full list.
Just the number, please, no unit after it.

IN: Specify reported activation factor for the molecule shown: `CCCn1c(SCC(N)=O)nnc1C(C)C`
OUT: 0.9

IN: Specify reported activation factor for the molecule shown: `CCOc1ccc(OCC)c(NC(=O)CSc2nnc(Cn3cnc4ccccc43)n2C)c1`
OUT: 0.9

IN: Specify reported activation factor for the molecule shown: `CCCCNC(=O)CSc1nnc(-c2ccco2)n1C`
OUT: 1

IN: Specify reported activation factor for the molecule shown: Cc1ccnc(N2CCCC(C(=O)Nc3cc(F)ccc3C)C2)n1 (stereo not given)
OUT: 0.9

IN: Specify reported activation factor for the molecule shown: `O=C(COc1ccccc1Cl)Nn1cnnc1`
OUT: 0.9

====

Kindly supply the reported activation factor values for the records listed here.
- SYSTEM: Alkaline phosphatase, tissue-nonspecific isozyme (Homo sapiens) (UniProt P05186)
- PROCEDURE TEXT: human TNAP enzyme activators, primary screen, biochemical, luminescent, intermediate phosphate acceptor level (AID 813)
- CONDITION: purified TNAP, CDP-star luminescence, 100 mM DEA, 30 min; at 20 µM; stronger effect = higher value; scale: 0 levamisole-inhibited, 1 vehicle-only enzyme
The whole screen tested about 64,000 compounds, of which fewer than 10 were called active. Not all results are given here.
Just the number, please, no unit after it.

IN: Specify reported activation factor for the molecule shown: `Cc1cc2cc(CNC(=O)c3ccc(S(=O)(=O)N4CCOCC4)cc3)ccc2[nH]1`
OUT: 1

IN: Specify reported activation factor for the molecule shown: CC(=O)OC(C(=O)NCCc1ccccc1)c1cccnc1 (configuration not stated)
OUT: 1

IN: Specify reported activation factor for the molecule shown: `COc1ccccc1C(=O)Oc1ccc(N2C(=O)CCC2=O)cc1`
OUT: 0.9

IN: Specify reported activation factor for the molecule shown: `CCOC(=O)c1c(C2CC2)csc1NC(=O)CSCc1c(C)noc1C`
OUT: 0.9

IN: Specify reported activation factor for the molecule shown: Cc1coc2c(O)cc3c(c12)OC1(N2CCCCC2)C(=O)NCCCC31 (configuration not stated)
OUT: 0.9

IN: Specify reported activation factor for the molecule shown: Cc1nn(-c2ccccc2)c2sc(C(=O)N(Cc3ccco3)C(C)C(=O)NC(C)(C)C)cc12 (configuration not stated)
OUT: 0.9

IN: Specify reported activation factor for the molecule shown: O=C(CC1(O)C(=O)N(CN2CCOCC2)c2ccccc21)c1ccccc1 (configuration not stated)
OUT: 0.9

IN: Specify reported activation factor for the molecule shown: `CCCS(=O)(=O)C(=C1Nc2ccccc2N1)S(=O)(=O)CCC`
OUT: 0.9

IN: Specify reported activation factor for the molecule shown: `CCOC(=O)N1CCN(C(=O)Cc2ccc(-n3c(=S)[nH]c4ccccc4c3=O)cc2)CC1`
OUT: 1

IN: Specify reported activation factor for the molecule shown: `Cc1ccc(O)c(NC(=O)COc2cc(C)ccc2C)c1`
OUT: 0.9

IN: Specify reported activation factor for the molecule shown: O=C1C(C=NCC2CCCO2)=C(O)c2ccccc21 (configuration not stated)
OUT: 1

IN: Specify reported activation factor for the molecule shown: COc1cccc(N2CC(C(=O)Nc3c(C)cccc3C)CC2=O)c1 (configuration not stated)
OUT: 1

IN: Specify reported activation factor for the molecule shown: `CSc1nc(O)c(Cc2ccccc2)c(=O)[nH]1`
OUT: 1

IN: Specify reported activation factor for the molecule shown: `CN1CCC2(CC1)NC(=O)NC2=O`
OUT: 1

IN: Specify reported activation factor for the molecule shown: CN1CCN(CC(O)COCc2ccc3c(c2)OCO3)CC1 (configuration not stated)
OUT: 1

IN: Specify reported activation factor for the molecule shown: `CCOC(=O)N1CCN(C(=O)c2ccc3nc4cc(Cl)ccc4c(=O)n3c2)CC1`
OUT: 0.9

IN: Specify reported activation factor for the molecule shown: CC(=O)N=c1ncn(CC(COC(C)=O)OC(C)=O)c2nc[nH]c12 (configuration not stated)
OUT: 0.9
